Provenance of the data: ChEMBL document CHEMBL1141659

Recorded ED50 by entry
- Tested on: Rattus norvegicus
- Test name: Antiresorptive activity in thyroidparathyroidectomized sc dosed rat assessed as inhibition of 1,25-dihydroxyvitamin D3-induced hypercalcemia
- Format: functional
Reported metric: ED50

# Molecule, Recorded measurement
rows = [
    ("N#CC(c1nc2ccccc2s1)C(c1ccc(Cl)cc1)C(P(=O)(O)O)P(=O)(O)O (centres undefined)", "0.09 mg/kg"),
    ("O=C1NC(=S)SC1C(c1ccccc1[N+](=O)[O-])C(P(=O)(O)O)P(=O)(O)O (centres undefined)", "0.088 mg/kg"),
    ("Cc1ccc(/C=C(\\c2nc3ccccc3s2)C(P(=O)(O)O)P(=O)(O)O)cc1", "0.125 mg/kg"),
    ("O=C1NC(=S)SC1C(c1ccccc1Cl)C(P(=O)(O)O)P(=O)(O)O (centres undefined)", "0.08 mg/kg"),
    ("CN(C)c1ccc(C(C(C#N)c2nc3ccccc3s2)C(P(=O)(O)O)P(=O)(O)O)cc1 (centres undefined)", "0.08 mg/kg"),
    ("O=C1NC(=S)SC1C(c1ccc([N+](=O)[O-])cc1)C(P(=O)(O)O)P(=O)(O)O (centres undefined)", "0.085 mg/kg"),
    ("Cc1ccc(C(C(C#N)c2nc3ccccc3s2)C(P(=O)(O)O)P(=O)(O)O)cc1 (centres undefined)", "0.11 mg/kg"),
    ("O=[N+]([O-])c1ccccc1/C=C(\\c1nc2ccccc2s1)C(P(=O)(O)O)P(=O)(O)O", "0.135 mg/kg"),
    ("CN(C)c1ccc(C(C2SC(=S)NC2=O)C(P(=O)(O)O)P(=O)(O)O)cc1 (centres undefined)", "0.07 mg/kg"),
    ("O=C1NC(=S)SC1C(c1ccccc1O)C(P(=O)(O)O)P(=O)(O)O (centres undefined)", "0.078 mg/kg"),
    ("O=C1NC(=S)SC1C(c1ccccc1)C(P(=O)(O)O)P(=O)(O)O (centres undefined)", "0.077 mg/kg"),
    ("O=P(O)(O)C(/C(=C/c1ccccc1Cl)c1nc2ccccc2s1)P(=O)(O)O", "0.105 mg/kg"),
    ("N#CC(c1nc2ccccc2s1)C(c1ccccc1[N+](=O)[O-])C(P(=O)(O)O)P(=O)(O)O (centres undefined)", "0.105 mg/kg"),
    ("N#CC(c1nc2ccccc2s1)C(c1ccccc1Cl)C(P(=O)(O)O)P(=O)(O)O (centres undefined)", "0.09 mg/kg"),
    ("CN(C)c1ccc(/C=C(\\c2nc3ccccc3s2)C(P(=O)(O)O)P(=O)(O)O)cc1", "0.11 mg/kg"),
    ("N#CC(c1nc2ccccc2s1)C(c1ccc([N+](=O)[O-])cc1)C(P(=O)(O)O)P(=O)(O)O (centres undefined)", "0.095 mg/kg"),
    ("NCCC(O)(P(=O)(O)O)P(=O)(O)O", "0.085 mg/kg"),
    ("O=P(O)(O)C(/C(=C/c1ccc(Cl)cc1)c1nc2ccccc2s1)P(=O)(O)O", "0.118 mg/kg"),
    ("O=[N+]([O-])c1ccc(/C=C(\\c2nc3ccccc3s2)C(P(=O)(O)O)P(=O)(O)O)cc1", "0.115 mg/kg"),
]

* * *

- Tested on: Mus musculus
- Test name: Antiinflammatory activity in delayed type hypersensitivity mouse model assessed as inhibition of granuloma dry weight at 100 mg/kg, sc

# Compound, Unit of measure, inhibition in vivo at 100 mg/kg
records = [
    ("O=P(O)(O)C(O)(Cc1cccnc1)P(=O)(O)O", "%", 44),
    ("O=C1NC(=S)SC1C(c1ccccc1)C(P(=O)(O)O)P(=O)(O)O (stereo not drawn)", "%", 39),
    ("O=C1NC(=S)SC1C(c1ccc([N+](=O)[O-])cc1)C(P(=O)(O)O)P(=O)(O)O (stereo not drawn)", "%", 46),
    ("O=C1NC(=S)SC1C(c1ccccc1O)C(P(=O)(O)O)P(=O)(O)O (stereo not drawn)", "%", 51),
    ("N#CC(c1nc2ccccc2s1)C(c1ccccc1Cl)C(P(=O)(O)O)P(=O)(O)O (stereo not drawn)", "%", 41),
    ("O=C1NC(=S)SC1C(c1ccccc1Cl)C(P(=O)(O)O)P(=O)(O)O (stereo not drawn)", "%", 44),
    ("CN(C)c1ccc(C(C(C#N)c2nc3ccccc3s2)C(P(=O)(O)O)P(=O)(O)O)cc1 (stereo not drawn)", "%", 58),
    ("O=C1NC(=S)SC1C(c1ccccc1[N+](=O)[O-])C(P(=O)(O)O)P(=O)(O)O (stereo not drawn)", "%", 46),
]

* * *

- Test system: Mus musculus
- Test name: Antiinflammatory activity in delayed type hypersensitivity mouse model assessed as inhibition of granuloma dry weight at 100 mg/kg, sc
Recorded inhibition in vivo at 100 mg/kg by entry

# Compound, Study system, inhibition in vivo at 100 mg/kg / %
records = [
    ("Cc1ccc(C(C(C#N)c2nc3ccccc3s2)C(P(=O)(O)O)P(=O)(O)O)cc1 (centres undefined)", "Mus musculus", 38),
    ("CN(C)c1ccc(/C=C(\\c2nc3ccccc3s2)C(P(=O)(O)O)P(=O)(O)O)cc1", "Mus musculus", 19),
    ("N#CC(c1nc2ccccc2s1)C(c1ccccc1[N+](=O)[O-])C(P(=O)(O)O)P(=O)(O)O (centres undefined)", "Mus musculus", 51),
    ("O=[N+]([O-])c1ccc(/C=C(\\c2nc3ccccc3s2)C(P(=O)(O)O)P(=O)(O)O)cc1", "Mus musculus", 10),
    ("Cc1ccc(/C=C(\\c2nc3ccccc3s2)C(P(=O)(O)O)P(=O)(O)O)cc1", "Mus musculus", 13),
    ("CN(C)c1ccc(C(C2SC(=S)NC2=O)C(P(=O)(O)O)P(=O)(O)O)cc1 (centres undefined)", "Mus musculus", 55),
    ("N#CC(c1nc2ccccc2s1)C(c1ccc([N+](=O)[O-])cc1)C(P(=O)(O)O)P(=O)(O)O (centres undefined)", "Mus musculus", 38),
    ("N#CC(c1nc2ccccc2s1)C(c1ccc(Cl)cc1)C(P(=O)(O)O)P(=O)(O)O (centres undefined)", "Mus musculus", 53),
    ("O=[N+]([O-])c1ccccc1/C=C(\\c1nc2ccccc2s1)C(P(=O)(O)O)P(=O)(O)O", "Mus musculus", 11),
]
